Data provenance: patent US12097252B2

test-details: In-use chemical stability of vaccine emulsions by UPLC/MS after extraction of peptides
Type: physicochemical
condition-label: peak in reconstituted PRAME-DP-5P, in-use storage t = 2 h
Listed here: items and their measured Related substances (≥0.05%) [Area %].
Numbers only here, please. The scale is Area %.

{"substance": "SEQ ID NO 156: PRAME-derived peptide, component of PRAME DP-5P (IPVEVLVDLFLKEGACDELFSYLIEKVKRKKNVLR)", "value-observed": 10.17}

Here is the next item to consider.
So for SEQ ID NO 155: PRAME-derived peptide, component of PRAME DP-5P (WTVWSGNRASLYSFPEPEAAQPMTKKRKVDGLST) , the logged Related substances (≥0.05%) [Area %] turned out to be 22.65
